- systemTested: hAPJ (Homo sapiens, UniProt P35414)
- Sequence (P35414 whole entry): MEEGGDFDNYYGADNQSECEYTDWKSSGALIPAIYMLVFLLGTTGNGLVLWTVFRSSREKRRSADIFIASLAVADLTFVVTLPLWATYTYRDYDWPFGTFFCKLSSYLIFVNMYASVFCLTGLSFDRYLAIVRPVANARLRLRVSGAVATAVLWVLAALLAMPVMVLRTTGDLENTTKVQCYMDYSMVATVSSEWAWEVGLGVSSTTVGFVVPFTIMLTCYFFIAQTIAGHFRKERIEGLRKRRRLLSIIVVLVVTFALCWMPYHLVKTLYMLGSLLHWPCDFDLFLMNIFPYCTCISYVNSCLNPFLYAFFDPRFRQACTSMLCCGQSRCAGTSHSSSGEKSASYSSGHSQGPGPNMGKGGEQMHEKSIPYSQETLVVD
- assayOverview: hAPJ Calcium Flux Assay
- experimentalSetup: Chem-5 APJ stable cells, FLIPR calcium flux; read-out: hAPJ Ca2+ Flux EC50
Bridge positions count the residues as written; N and C are the ends. Square brackets hold non-standard residues; d marks the D form. Peptide text beside a SMILES is read from it. * marks the point of attachment. pGlu = O=C1CC[C@@H](C(=O)O)N1; NHPhenethyl = c1ccc(CCN*)cc1; d(hCys) = N[C@H](CCS)C(=O)O; hCys = N[C@@H](CCS)C(=O)O; Nle = CCCC[C@H](N)C(=O)O; Aib = CC(C)(N)C(=O)O
Exercise: state measured pEC50 for each of the molecules provided.
Give bare numbers, as −log10 of the molar value.

Worked set:
Consider the molecule CCCC[C@@H]1NC(=O)[C@@H]2CCCN2C(=O)[C@@H](NC(=O)[C@H](CCCCN)NC(=O)C(C)(C)NC(=O)[C@H](CO)NC(=O)[C@H](CC(C)C)NC(=O)[C@H](CCCNC(=N)N)NC(=O)[C@@H]2CCCN2C(=O)[C@H](CCCNC(=N)N)NC(=O)[C@@H]2CCC(=O)N2)CSSC[C@@H](C(=O)NCCc2ccccc2)NC1=O [Example 15] ([pGlu]RPRLS[Aib]KCP[Nle]C-NHPhenethyl; disulfide 9-12) and give its measured pEC50.
8.40

Consider the molecule CCCC[C@@H]1NC(=O)[C@@H]2CCCN2C(=O)CNC(=O)[C@H](CCCCN)NC(=O)[C@@H](NC(=O)[C@H](CO)NC(=O)[C@H](CC(C)C)NC(=O)[C@H](CCCNC(=N)N)NC(=O)[C@@H]2CCCN2C(=O)[C@H](CCCNC(=N)N)NC(=O)[C@@H]2CCC(=O)N2)CCSSCC[C@@H](C(=O)N[C@@H](Cc2ccccc2)C(=O)O)NC1=O [Example 13, pE-R-P-R-L-S-hC*-K-G-P-Nle-hC*-F-OH] ([pGlu]RPRLS[hCys]KGP[Nle][hCys]F-OH; disulfide 7-12) and give its measured pEC50.
6.12

Consider the molecule CCCC[C@@H]1NC(=O)[C@@H]2CCCN2C(=O)CNC(=O)[C@H](CCCCN)NC(=O)[C@H](NC(=O)[C@H](CO)NC(=O)[C@H](CC(C)C)NC(=O)[C@H](CCCNC(=N)N)NC(=O)[C@@H]2CCCN2C(=O)[C@H](CCCNC(=N)N)NC(=O)[C@@H]2CCC(=O)N2)CCSSCC[C@H](C(=O)N[C@@H](Cc2ccccc2)C(=O)O)NC1=O [Example 7] ([pGlu]RPRLS[d(hCys)]KGP[Nle][d(hCys)]F-OH; disulfide 7-12) and give its measured pEC50.
6.11

Consider the molecule CCCC[C@@H]1NC(=O)[C@@H]2CCCN2C(=O)[C@@H](NC(=O)[C@H](CCCCN)NC(=O)C(C)(C)NC(=O)[C@H](CO)NC(=O)[C@H](CC(C)C)NC(=O)[C@H](CCCNC(=N)N)NC(=O)[C@@H]2CCCN2C(=O)[C@H](CCCNC(=N)N)NC(=O)[C@@H]2CCC(=O)N2)CSSC[C@@H](C(=O)N[C@H](Cc2ccccc2)C(=O)O)NC1=O [Example 20, pE-R-P-R-L-S-Aib-K-C*-P-Nle-C*-f-OH] ([pGlu]RPRLS[Aib]KCP[Nle]C[dF]-OH; disulfide 9-12) and give its measured pEC50.
8.21

Then there is this molecule:
Consider the molecule CCCC[C@@H]1NC(=O)[C@@H]2CCCN2C(=O)CNC(=O)[C@H](CCCCN)NC(=O)[C@H](Cc2c[nH]cn2)NC(=O)[C@H](CO)NC(=O)[C@@H](NC(=O)[C@H](CCCNC(=N)N)NC(=O)[C@@H]2CCCN2C(=O)[C@H](CCCNC(=N)N)NC(=O)[C@@H]2CCC(=O)N2)CSSC[C@@H](C(=O)N[C@@H](Cc2ccccc2)C(=O)O)NC1=O [Example 1, pE-R-P-R-C*-S-H-K-G-P-Nle-C*-F-OH] ([pGlu]RPRCSHKGP[Nle]CF-OH; disulfide 5-12) and give its measured pEC50.
9.13
